Molecular target: T1, Plasmodium falciparum Histidine Rich Protein-2 (Plasmodium falciparum)
T1 construct: the construct used in the assay is not described; also called Pf.HRP-2
T1 chain: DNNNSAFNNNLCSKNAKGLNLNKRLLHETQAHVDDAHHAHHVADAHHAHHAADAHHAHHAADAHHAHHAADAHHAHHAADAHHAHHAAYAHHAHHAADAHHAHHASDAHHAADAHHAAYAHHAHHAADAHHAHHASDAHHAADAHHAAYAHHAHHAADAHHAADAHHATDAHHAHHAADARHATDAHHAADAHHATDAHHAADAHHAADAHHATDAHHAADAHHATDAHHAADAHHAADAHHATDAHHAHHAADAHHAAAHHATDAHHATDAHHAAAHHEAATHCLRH
Test: assay not described; two Cy(YKYYR) PCCs joined by about a 1.5 nm linker
Ends that are not written are not given here.
PROPERTY MEASURED: EC50 (nM)
Reply with just the number (in nM).

Item YKYYR (designed binder, not fully specified (bridges), also called The resultant linked biligand) [linked biligand of two Cy(YKYYR) PCCs] has what recorded EC50?
20.8
